Biological target: T1, Human hepcidin peptide (hepcidin-25) (human)
T1 construct: Synthetic 25 aa peptide; also called hep-25; Hep-25
T1 peptide: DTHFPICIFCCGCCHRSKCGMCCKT
Test: titration affinity ELISA, hepcidin 100 ng/well on Nunc Immobilizer Amino plate, CHO supernatant; antibody 50 ng/ml
Description: FIGS. 17A-C. Titration affinity ELISA of humanized hits. FIG. 17A: Assay layout. […] Concentration of IgG in the supernatant was determined using BioAtla's quantitation ELISA. […] Bound antibodies were detected with anti-human IgG conjugated with HRP (1:2500). The reactions were stopped with 1 N HCl at 1.5 minutes after TMB was added to the wells and read immediately. […] FIG. 17B: OD 450 nm value of the reactions measured with Molecular Device SPECTRAMAX® Plus. […]

{"BINDER": "BAP070-hum05 (antibody, IgG1, V domains shown, Expressed as soluble IgG1 in CHO cells, tested as supernatant; The entries stop inside FR4) VH: EVQLVQSGAEVKKPGESLRISCKGSGYTFTNYGMNWIRQPPGKGLEWIGWINTYTGEPTYADDFKGRVTISADKSISTAYLQWSSLKASDTAMYYCTTYATSWYWGQG VL: DIQMTQSPSSLSASVGDRVTITCRASESVDSYGNSFMHWYQQKPGQAPRLLIYRASNLESGVPSRFSGSGSGTDFTFTISSLQPEDIATYYCQQSNEDLTFG", "READING_UNIT": "OD450", "OD 450 nm": 2.85}
{"BINDER": "BAP070-hum01 (antibody, IgG1, V domains shown, Expressed as soluble IgG1 in CHO cells, tested as supernatant; The entries stop inside FR4 (...WGQG / ...FG); also called humanized hit 1) VH: QVQLVQSGAEVKKPGASVKVSCKASGYTFTNYGMNWVRQARGQRLEWIGWINTYTGEPTYADDFKGRLTISKDTSKNQVVLTMTNMDPVDTATYYCTTYATSWYWGQG VL: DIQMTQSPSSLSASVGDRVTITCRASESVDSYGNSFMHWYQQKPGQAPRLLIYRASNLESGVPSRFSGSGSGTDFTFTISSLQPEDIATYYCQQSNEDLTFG", "READING_UNIT": "OD450", "OD 450 nm": 3.02}
{"BINDER": "BAP070-hum06 (antibody, IgG1, V domains shown, Expressed as soluble IgG1 in CHO cells, tested as supernatant; The entries stop inside FR4) VH: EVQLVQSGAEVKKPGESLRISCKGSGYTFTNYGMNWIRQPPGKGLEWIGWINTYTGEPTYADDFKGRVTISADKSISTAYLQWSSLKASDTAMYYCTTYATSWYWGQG VL: AIQLTQSPSSLSASVGDRVTITCRASESVDSYGNSFMHWYQQKPGQAPRLLIYRASNLESGVPSRFSGSGSGTDFTFTISSLQPEDIATYYCQQSNEDLTFG", "READING_UNIT": "OD450", "OD 450 nm": 3.06}
{"BINDER": "BAP070-hum04 (antibody, V domains shown, Expressed as soluble IgG1 in CHO cells, tested as supernatant; The entries stop inside FR4) VH: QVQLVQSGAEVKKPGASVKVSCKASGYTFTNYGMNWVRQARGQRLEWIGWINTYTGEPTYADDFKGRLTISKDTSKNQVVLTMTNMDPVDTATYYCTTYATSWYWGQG VL: AIQLTQSPSSLSASVGDRVTITCRASESVDSYGNSFMHWFQQRPGQSPRRLIYRASNLESGIPPRFSGSGYGTDFTLTINNIESEDAAYYFCQQSNEDLTFG", "READING_UNIT": "OD450", "OD 450 nm": 2.99}
{"BINDER": "BAP070-hum03 (antibody, IgG1, V domains shown, Expressed as soluble IgG1 in CHO cells, tested as supernatant; The entries stop inside FR4) VH: QVQLVQSGAEVKKPGASVKVSCKASGYTFTNYGMNWVRQATGQGLEWMGWINTYTGEPTYADDFKGRFVFSLDTSVSTAYLQICSLKAEDTAVYYCTTYATSWYWGQG VL: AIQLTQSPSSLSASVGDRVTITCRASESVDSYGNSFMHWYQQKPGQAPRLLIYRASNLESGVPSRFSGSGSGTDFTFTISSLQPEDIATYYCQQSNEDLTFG", "READING_UNIT": "OD450", "OD 450 nm": 2.93}

This collection of values is drawn from patent US20170247448A1.
